# assay_summary: wn = mass fraction of the nth substance listed
# condition_context: 313.15 K, Pendant drop shape, w1 = 0.2
recorded_metric: surface tension liquid-gas (mN/m)
Just the number in mN/m, nothing appended.

Reference set, count: 4
[Cl-].[Na+] [sodium chloride] + O; 76.99
[Br-].[K+] [potassium bromide] + O; 72.29
[Cl-].[K+] [potassium chloride] + O; 74.82
[I-].[Na+] [sodium iodide] + O; 71.85

Proceeding to the next molecule to report its surface tension liquid-gas.
Ask: Which measured surface tension liquid-gas value corresponds to [Br-].[Na+] [sodium bromide] + O ?
Reply: 74.1

----------
# assay_summary: wn = mass fraction of the nth substance listed
# condition_context: 323.15 K, Pendant drop shape, w1 = 0.15
± gives the expanded uncertainty stated by the source.
recorded_metric: surface tension liquid-gas
Numeric answer plus unit only.

[Cl-].[Na+] [sodium chloride] + O; 73.55 ± 0.85 mN/m
[Cl-].[K+] [potassium chloride] + O; 71.74 ± 0.84 mN/m
[Br-].[Na+] [sodium bromide] + O; 71.36 ± 0.84 mN/m
[I-].[Na+] [sodium iodide] + O; 69.81 ± 0.83 mN/m

As a next step, examine the molecule that follows.
Ask: Quick one: surface tension liquid-gas for [Br-].[K+] [potassium bromide] + O ?
Reply: 70.21 ± 0.83 mN/m
